test system: Plasmodium falciparum; assay: Antimalarial activity after 72 hrs against chloroquine-sensitive Plasmodium falciparum D6 by Malstat LDH activity; format: functional, organism-based; conditions: D6, 72 h
quantity-name: IC50 (µM)
Your answer should be a plain number; it is taken to be in µM.

Example entries and their recorded answers appear below.
compound | quantity-name | quantity-unit | value-observed
Cc1cccc(C2OOC(c3ccccc3)OO2)c1 (configuration not stated) | IC50 | µM | 0.5
CCc1ccc(C2OOC(c3ccc(CC)cc3)OO2)cc1 (configuration not stated) | IC50 | µM | 0.99
CC(C)c1ccc(C2OOC(c3ccc(C(C)(C)C)cc3)OO2)cc1 (configuration not stated) | IC50 | µM | 13.9
CCCCc1ccc(C2OOC(c3ccc(CCCC)cc3)OO2)cc1 (configuration not stated) | IC50 | µM | 3.65
Cc1cccc(C2OOC(c3ccccc3C)OO2)c1 (configuration not stated) | IC50 | µM | 1.03

What measured IC50 goes with CCc1ccc(C2OOC(c3ccc(C)cc3)OO2)cc1 (configuration not stated) ?
0.38

What measured IC50 goes with CCCc1ccc(C2OOC(c3ccc(CCC)cc3)OO2)cc1 (configuration not stated) ?
0.61

What measured IC50 goes with CC(C)(C)c1ccc(C2OOC(c3ccc(C(C)(C)C)cc3)OO2)cc1 (configuration not stated) ?
2.19

What measured IC50 goes with COc1ccc(C2OOC(c3ccc(C(C)(C)C)cc3)OO2)cc1 (configuration not stated) ?
0.54

What measured IC50 goes with Cc1ccc(C2OOC(c3cccc(C)c3)OO2)cc1 (configuration not stated) ?
0.67

What measured IC50 goes with Cc1ccc(C2OOC(c3ccccc3C)OO2)cc1 (configuration not stated) ?
3.05

What measured IC50 goes with CC(C)c1ccc(C2OOC(c3ccc(C(C)C)cc3)OO2)cc1 (configuration not stated) ?
0.67
